- METHOD_NOTES: Clearance in female Wistar rat blood at 5 mg/kg, iv
- Assay type: ADME, organism-based
- CONDITION_PARAMETERS: whole blood
VALUE_TYPE: clearance
Please answer in the form of a number followed by its unit of measurement.

Recorded clearance of COC[C@@](O)([C@@H](Nc1cc(F)cc2[nH]c(=O)ccc12)c1ccc(OC)c(F)c1Cl)C(F)(F)F , please.
60 mL/min/kg

----------
- METHOD_NOTES: Lipophilicity, logP of compound
- Type: physicochemical
- CONDITION_PARAMETERS: octanol/water
VALUE_TYPE: logP
Give bare numbers.

Known logP results, listed for orientation:
Given the compound COC[C@@](O)([C@@H](Nc1cc(F)cc2[nH]c(=O)ccc12)c1ccc(OC)c(F)c1Cl)C(F)(F)F , what is its reported logP?
3.3

Sample CC[C@H]1c2c(cc(F)c(F)c2O)[C@H](Nc2cccc3[nH]c(=O)ccc23)[C@@](O)(C(F)(F)F)C1OC (stereo partly drawn) — what was its logP?
3.1

What logP value was documented for this compound, CCSC[C@@](O)([C@@H](Nc1cccc2nc(C)ccc12)c1ccc(F)cc1OC)C(F)(F)F ?
4.4

Look up logP for this compound: CCSC[C@@](O)([C@@H](Nc1cccc2nc(C)ccc12)c1cccc(F)c1OC)C(F)(F)F
4.6

Value lookup for logP; key = CCSC[C@@](O)([C@@H](Nc1cccc2nc(C)ccc12)c1ccc(OC)cc1)C(F)(F)F
4.2

Would you mind telling me what logP value was observed for COC[C@@](O)([C@@H](Nc1cccc2nc(C)ccc12)c1ccc(OC)c(F)c1Cl)C(F)(F)F ?
3.8

Please state logP for every compound in the list that follows.
1. CCSC[C@@](O)([C@@H](Nc1cccc2nc(C)ccc12)c1ccc(Cl)c(F)c1O)C(F)(F)F
2. CCSC[C@@](O)([C@@H](Nc1cccc2nc(C)ccc12)c1ccc(OC)c(F)c1Cl)C(F)(F)F

1. 3.4
2. 4.9

----------
- METHOD_NOTES: Terminal half life in female Wistar rat blood at 5 mg/kg, iv
- Format: ADME, organism-based
- CONDITION_PARAMETERS: whole blood, read-out: beta t1/2 (converted)
VALUE_TYPE: half-life
Include the unit after the number when you answer.

Which half-life value is on record for COC[C@@](O)([C@@H](Nc1cc(F)cc2[nH]c(=O)ccc12)c1ccc(OC)c(F)c1Cl)C(F)(F)F ?
1.9 h

----------
- System: THP-1
- METHOD_NOTES: Immunomodulatory activity in human THP1 cells assessed as reduction in LPS-induced IL-8 production relative to control
- Assay type: functional
Can you tell me Emax for the items I'm about to list?
One number for each entry, in %.

Below: 3 compounds and their reported Emax.
Emax lookup needed for CCSC[C@@](O)([C@@H](Nc1cccc2nc(C)ccc12)c1cccc(F)c1OC)C(F)(F)F , thanks.
69

Would you mind telling me what Emax value was observed for CCSC[C@@](O)([C@@H](Nc1cccc2nc(C)ccc12)c1ccc(F)cc1OC)C(F)(F)F ?
78

May I ask what Emax has been recorded for COc1ccc([C@H](Nc2cc(F)cc3[nH]c(=O)ccc23)[C@](O)(CN(C)C)C(F)(F)F)c(Cl)c1F ?
109

Parameter requested: Emax. Apply to each item below.
1. CCSC[C@@](O)([C@@H](Nc1cccc2nc(C)ccc12)c1ccc(OC)c(F)c1Cl)C(F)(F)F
2. COc1ccc([C@H](Nc2cccc3nc(C)ccc23)[C@](O)(CN(C)C)C(F)(F)F)c(Cl)c1F

1: 91; 2: 77

----------
- METHOD_NOTES: Volume of distribution at steady state in male Wistar rat blood at 1 mg/kg, iv
- Assay type: ADME, organism-based
- CONDITION_PARAMETERS: whole blood, read-out: Vdss
VALUE_TYPE: Vd

What value of Vd has been reported for the following compound? COc1ccc([C@H](Nc2cc(F)cc3[nH]c(=O)ccc23)[C@](O)(CO)C(F)(F)F)c(Cl)c1F
18 L/kg

----------
- METHOD_NOTES: Metabolic stability in dog Hepatocyte assessed as intrinsic clearance
- Type: ADME, cell-based, Canis lupus familiaris
- CONDITION_PARAMETERS: hepatocytes, read-out: CLH (converted)
VALUE_TYPE: CLint scaled

Which CLint scaled is listed for COC[C@@](O)([C@@H](Nc1cc(F)cc2[nH]c(=O)ccc12)c1ccc(OC)c(F)c1Cl)C(F)(F)F ?
21.7 mL/min/kg

----------
- METHOD_NOTES: Mutagenicity in Salmonella typhimurium by Ames test
- Format: toxicity
- CONDITION_PARAMETERS: salmonella enterica subsp. enterica serovar typhimurium
VALUE_TYPE: Activity

Which Activity is listed for Nc1ccc(F)c2[nH]c(=O)ccc12 ?
Toxic

Tell me the measured Activity of Nc1c(F)ccc2[nH]c(=O)ccc12 , please.
Toxic

Param item = Nc1cccc2c(=O)[nH]ccc12 ; retrieve measured Activity.
Toxic

----------
- METHOD_NOTES: Efflux ratio of apparent permeability from apical to basolateral side in human Caco2 cells
- Format: ADME, cell-based
- CONDITION_PARAMETERS: Caco-2
VALUE_TYPE: efflux ratio
One number for each entry.

Would you mind telling me what efflux ratio value was observed for COC[C@@](O)([C@@H](Nc1cc(F)cc2[nH]c(=O)ccc12)c1ccc(OC)c(F)c1Cl)C(F)(F)F ?
0.5

----------
- METHOD_NOTES: Apparent permeability from apical to basolateral side in human Caco2 cells
- Assay type: ADME, cell-based
- CONDITION_PARAMETERS: Caco-2
VALUE_TYPE: Papp A→B
Be sure to follow the number with its unit.

Param item = COC[C@@](O)([C@@H](Nc1cc(F)cc2[nH]c(=O)ccc12)c1ccc(OC)c(F)c1Cl)C(F)(F)F ; retrieve measured Papp A→B.
1.9 ×10⁻⁶ cm/s

----------
- Test system: THP-1
- METHOD_NOTES: Immunomodulatory activity in human THP1 cells assessed as reduction in LPS-induced IL-8 production relative to control
- Format: functional
# note: boundary value 90% maps to NO; Emax below it maps to YES

As a guide, the following entries are already answered.
Given COc1ccc([C@H](Nc2cccc3nc(C)ccc23)[C@](O)(CSC)C(F)(F)F)c(Cl)c1F , is recorded Emax strictly lower than 90%?
NO

Lab note: confirm whether the reported Emax for this molecule is below 90%, equality not counting. molecule: COC[C@@](O)([C@@H](Nc1cccc2nc(C)ccc12)c1ccc(OC)c(F)c1Cl)C(F)(F)F
NO

# check: Emax < 90% for CCSC[C@@](O)([C@@H](Nc1cccc2nc(C)ccc12)c1ccc(OC)cc1)C(F)(F)F
YES

Would you kindly verify if Emax of COc1ccc([C@H](Nc2cccc3nc(C)ccc23)[C@](O)(CC#N)C(F)(F)F)c(Cl)c1F is strictly less than 90%?
YES

Confirm or reject: Emax of CCOC[C@@](O)([C@@H](Nc1cc(F)cc2[nH]c(=O)ccc12)c1ccc(OC)c(F)c1Cl)C(F)(F)F lies strictly below 90%
NO

Answer whether the molecule CC[C@H]1c2c(cc(F)c(F)c2O)[C@H](Nc2cccc3[nH]c(=O)ccc23)[C@@](O)(C(F)(F)F)C1OC (stereo partly specified) has Emax strictly less than 90%
YES

Please state whether Emax is below 90% for CCSC[C@@](O)([C@@H](Nc1cccc2nc(C)ccc12)c1ccc(C)cc1)C(F)(F)F
YES

# strict comparison: is reported Emax < 90%? input = C[C@@H]1C[C@H]2[C@@H]3CCC4=CC(=O)C=C[C@]4(C)[C@@]3(F)[C@@H](O)C[C@]2(C)[C@@]1(O)C(=O)CO
NO

For the next question, use this molecule.
Threshold test, Emax < 90%: CCSC[C@@](O)([C@@H](Nc1cccc2nc(C)ccc12)c1ccc(OC)c(F)c1)C(F)(F)F
YES

----------
- METHOD_NOTES: Clearance in female Wistar rat plasma at 5 mg/kg, iv
- Assay type: ADME, organism-based
VALUE_TYPE: clearance
Please don't drop the unit; write it after the number.

Any idea what its clearance is? The compound is COC[C@@](O)([C@@H](Nc1cc(F)cc2[nH]c(=O)ccc12)c1ccc(OC)c(F)c1Cl)C(F)(F)F
3 L/h/kg

----------
- METHOD_NOTES: Volume of distribution at steady state in female Wistar rat blood at 5 mg/kg, iv
- Type: ADME, organism-based
- CONDITION_PARAMETERS: whole blood, read-out: Vdss
VALUE_TYPE: Vd (L/kg)
Give bare numbers, in L/kg.

Which Vd value belongs to COC[C@@](O)([C@@H](Nc1cc(F)cc2[nH]c(=O)ccc12)c1ccc(OC)c(F)c1Cl)C(F)(F)F ?
7

----------
- Tested on: PBMC
- METHOD_NOTES: Inhibition of PHA-induced IL2 release in human PBMC cells
- Format: functional, cell-based
VALUE_TYPE: pIC50
Numbers only, as −log10 of the molar value.

Record request: pIC50 value, item C[C@@H]1C[C@H]2[C@@H]3CCC4=CC(=O)C=C[C@]4(C)[C@@]3(F)[C@@H](O)C[C@]2(C)[C@@]1(O)C(=O)CO
8.34

Return reported pIC50; argument: COC[C@@](O)([C@@H](Nc1cc(F)cc2[nH]c(=O)ccc12)c1ccc(OC)c(F)c1Cl)C(F)(F)F
9.06

---
Could you tell me which pIC50 is on file for C[C@H]1C[C@H]2[C@@H]3CCC4=CC(=O)C=C[C@]4(C)[C@@]3(F)[C@@H](O)C[C@]2(C)[C@@]1(O)C(=O)CCl ?
9.85

Data credit: ChEMBL document CHEMBL4622936
